# Measured On: Sho1, P40073
# Sequence (P40073 287-367): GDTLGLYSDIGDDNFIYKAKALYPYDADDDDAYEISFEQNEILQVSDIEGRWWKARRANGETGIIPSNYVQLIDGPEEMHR
# Measurement Protocol: SPOT array
# Measurement Conditions: median of control spots 1148
I'd appreciate it if you could supply SPOT intensity values for the items below.
Respond using a number only.

Query: Requested read-out: SPOT intensity. Entry: NIKVLLNPKLGKPVK
Result: 63

Query: Requested read-out: SPOT intensity. Entry: VQPTAAPATPPRHIS
Result: 0

Query: Requested read-out: SPOT intensity. Entry: EVTPKVPERPSRRKT
Result: 23

Query: Requested read-out: SPOT intensity. Entry: DLPLPDLPPEPPTEL
Result: 0

Query: Requested read-out: SPOT intensity. Entry: RLSFFFPLDPAYIRN
Result: 68

Query: Requested read-out: SPOT intensity. Entry: LKQRFFLMFPKSIIW
Result: 53

Query: Requested read-out: SPOT intensity. Entry: APKREAPKPPANTSP
Result: 0

Query: Requested read-out: SPOT intensity. Entry: FTLPPPPPPPGLDEL
Result: 0

Query: Requested read-out: SPOT intensity. Entry: QGYPRQPQRPQRYHP
Result: 0

Query: Requested read-out: SPOT intensity. Entry: NPNRRAPRRPLSTQH
Result: 267

Query: Requested read-out: SPOT intensity. Entry: TSIEIPKRSPLRFTS
Result: 8

Query: Requested read-out: SPOT intensity. Entry: LPPPPPPPPPPPLPQ
Result: 0

Query: Requested read-out: SPOT intensity. Entry: APPLPPTAPPPPSLP
Result: 0

Query: Requested read-out: SPOT intensity. Entry: RSKRLFPVRPMATAH
Result: 90

Query: Requested read-out: SPOT intensity. Entry: QPQRTAPKPPISAPR
Result: 0

Query: Requested read-out: SPOT intensity. Entry: GSKSGPPPRPKKPST
Result: 16

Query: Requested read-out: SPOT intensity. Entry: AHFQPQRTAPKPPIS
Result: 1

Query: Requested read-out: SPOT intensity. Entry: NRLRKRLNLPSEISI
Result: 58

Query: Requested read-out: SPOT intensity. Entry: RKNRAPPQRPRFNRD
Result: 262

Query: Requested read-out: SPOT intensity. Entry: FHLNPKRSAVLYDRP
Result: 35

Query: Requested read-out: SPOT intensity. Entry: DKKTKPTPPPKPSHL
Result: 115

Query: Requested read-out: SPOT intensity. Entry: YHSRRHPLALGFKYV
Result: 7

Query: Requested read-out: SPOT intensity. Entry: RAPPPVPKKPSSRIA
Result: 509

Query: Requested read-out: SPOT intensity. Entry: RKRRTHLRLPLIRSN
Result: 47

Query: Requested read-out: SPOT intensity. Entry: TEVPIPRRPPPPQAA
Result: 0

Query: Requested read-out: SPOT intensity. Entry: KLSRGRYGLPLSSRP
Result: 31

Query: Requested read-out: SPOT intensity. Entry: SGVRLPAPPPPPRRG
Result: 0

Query: Requested read-out: SPOT intensity. Entry: DDEDVPPQLPTRTKS
Result: 0

Query: Requested read-out: SPOT intensity. Entry: DFTLPPPPPPPGLDE
Result: 0

Query: Requested read-out: SPOT intensity. Entry: YRRKSIPFAPHQITA
Result: 17
